Assay: Plasma PK and tissue distribution after oral dosing of INTERMEDIATE C4 (3 mg/kg)
Format: in vivo
Conditions: male, Wistar Han, rat, liver / plasma, po, 3 mg/kg, PO 3 mg/kg INTERMEDIATE C4, male Wistar Han rat, 1 hr; read-out: Liver to plasma ratio Mean
Measurement kind: Kp at 1 h

{"columns": ["Compound", "Measurement kind", "Recorded measurement"],
 "data": [
  ["CC(C)CN(c1ccc([C@H](C)CC(=O)O)cc1Nc1cnc(Cl)cn1)C1CCOCC1 [intermediate C4]", "Kp at 1 h", 9.31]
]}

----------
Assay: Plasma PK and tissue distribution after oral dosing of INTERMEDIATE C4 (3 mg/kg)
Assay type: in vivo
Settings: male, Wistar Han, rat, spleen/plasma, po, 3 mg/kg, PO 3 mg/kg INTERMEDIATE C4, male Wistar Han rat, 4 hr; read-out: Spleen to plasma ratio Mean

{"columns": ["Compound", "Kp at 4 h"],
 "data": [
  ["CC(C)CN(c1ccc([C@H](C)CC(=O)O)cc1Nc1cnc(Cl)cn1)C1CCOCC1 [intermediate C4]", 0.308]
]}

All figures here come from patent US20210186960A1.
